Molecular target: Region II of the P. knowlesi β protein expressed on the Cos7 cell surface (Plasmodium knowlesi; Herpes simplex …, UniProt P50493)
pIC50: −log10 of the molar value.
value.type: pIC50

query: If you can, please state the reported pIC50 value of AELSPSTQNSSQLNSDLWNFSYDGNDSFPDVDYD [RHPEP34] .
result: < 4.00
